tested on: Enterococcus faecium; assay: Antibacterial activity against Enterococcus faecium 1450 assessed as growth inhibition by microbroth dilution assay; type: functional
Numbered stars: 1 amine (or outer) side, 2 acyl side, 3 side chain; on linkers, the order of the positions; unused ones are H or OH. Square brackets hold non-standard residues; d marks the D form. Peptide text beside a SMILES is read from it. X1 = NN([C@H](Cc1ccccc1)C(=O)[*:2])[*:1]; Orn(Nα-NH2) = NCCC[C@H](NN)C(=O)O; Orn = NCCC[C@H](N)C(=O)O
This section presents compounds with their documented MIC values.
Form entry: value (µM) — number only.

// worked examples, MIC included
compound: CC(C)C[C@@H]1NC(=O)[C@H](CCCN)NC(=O)[C@H](C(C)C)NC(=O)[C@@H]2CCCN2C(=O)[C@@H](Cc2ccccc2)N(N)C(=O)[C@H](CC(C)C)NC(=O)[C@H](CCCN)N(N)C(=O)[C@H](C(C)C)NC(=O)[C@@H]2CCCN2C(=O)[C@@H](Cc2ccccc2)N(N)C1=O (cyclo(L[X1]PV[Orn]L[X1]PV[Orn(Nα-NH2)]))
value type: MIC
unit tag: µM
numeric result: 3

compound: CC(C)C[C@@H]1NC(=O)[C@H](CCCN)NC(=O)[C@H](C(C)C)NC(=O)[C@@H]2CCCN2C(=O)[C@@H](Cc2ccccc2)NC(=O)[C@H](CC(C)C)NC(=O)[C@H](CCCN)NC(=O)[C@H](C(C)C)NC(=O)[C@@H]2CCCN2C(=O)[C@@H](Cc2ccccc2)NC1=O (cyclo(V[Orn]L[dF]PV[Orn]L[dF]P))
value type: MIC
unit tag: µM
numeric result: 3

compound: CC(C)C[C@@H]1NC(=O)[C@H](CCCN)N(N)C(=O)[C@H](C(C)C)NC(=O)[C@@H]2CCCN2C(=O)[C@@H](Cc2ccccc2)NC(=O)[C@H](CC(C)C)NC(=O)[C@H](CCCN)N(N)C(=O)[C@H](C(C)C)NC(=O)[C@@H]2CCCN2C(=O)[C@@H](Cc2ccccc2)NC1=O (cyclo(L[dF]PV[Orn(Nα-NH2)]L[dF]PV[Orn(Nα-NH2)]))
value type: MIC
unit tag: µM
numeric result: 2

compound: CC(C)C[C@@H]1NC(=O)[C@H](CCCN)N(N)C(=O)[C@H](C(C)C)NC(=O)[C@@H]2CCCN2C(=O)[C@@H](Cc2ccccc2)N(N)C(=O)[C@H](CC(C)C)NC(=O)[C@H](CCCN)NC(=O)[C@H](C(C)C)NC(=O)[C@@H]2CCCN2C(=O)[C@@H](Cc2ccccc2)NC1=O (cyclo(L[dF]PV[Orn]L[X1]PV[Orn(Nα-NH2)]))
value type: MIC
unit tag: µM
numeric result: 3

Enterococcus faecium assay, compound CC(C)C[C@@H]1NC(=O)[C@H](CCCN)NC(=O)[C@H](C(C)C)NC(=O)[C@@H]2CCCN2C(=O)[C@@H](Cc2ccccc2)N(N)C(=O)[C@H](CC(C)C)NC(=O)[C@H](CCCN)NC(=O)[C@H](C(C)C)NC(=O)[C@@H]2CCCN2C(=O)[C@@H](Cc2ccccc2)NC1=O (cyclo(L[dF]PV[Orn]L[X1]PV[Orn])) , recorded MIC = 5

====

This section presents molecules with their documented MIC values.
test system: Enterococcus faecium; assay: Antibacterial activity against Enterococcus faecium 1450 assessed as growth inhibition by microbroth dilution assay; type: functional
Numbered stars: 1 amine (or outer) side, 2 acyl side, 3 side chain; on linkers, the order of the positions; unused ones are H or OH. Square brackets hold non-standard residues; d marks the D form. Peptide text beside a SMILES is read from it. X1 = NN([C@H](Cc1ccccc1)C(=O)[*:2])[*:1]; Orn(Nα-NH2) = NCCC[C@H](NN)C(=O)O; Orn = NCCC[C@H](N)C(=O)O
Form entry: value (µM) — number only.

molecule: CC(C)C[C@@H]1NC(=O)[C@H](CCCN)N(N)C(=O)[C@H](C(C)C)NC(=O)[C@@H]2CCCN2C(=O)[C@@H](Cc2ccccc2)N(N)C(=O)[C@H](CC(C)C)NC(=O)[C@H](CCCN)N(N)C(=O)[C@H](C(C)C)NC(=O)[C@@H]2CCCN2C(=O)[C@@H](Cc2ccccc2)N(N)C1=O (cyclo(L[X1]PV[Orn(Nα-NH2)]L[X1]PV[Orn(Nα-NH2)]))
unit tag: µM
numeric result: 2

Enterococcus faecium assay, molecule CC(C)C[C@@H]1NC(=O)[C@H](CCCN)NC(=O)[C@H](C(C)C)NC(=O)[C@@H]2CCCN2C(=O)[C@@H](Cc2ccccc2)N(N)C(=O)[C@H](CC(C)C)NC(=O)[C@H](CCCN)N(N)C(=O)[C@H](C(C)C)NC(=O)[C@@H]2CCCN2C(=O)[C@@H](Cc2ccccc2)NC1=O (cyclo(L[dF]PV[Orn(Nα-NH2)]L[X1]PV[Orn])) , recorded MIC = 3

====

test system: Pseudomonas aeruginosa; assay: Antibacterial activity against Pseudomonas aeruginosa 1419 assessed as growth inhibition by microbroth dilution assay; assay type: functional
Numbered stars: 1 amine (or outer) side, 2 acyl side, 3 side chain; on linkers, the order of the positions; unused ones are H or OH. Square brackets hold non-standard residues; d marks the D form. Peptide text beside a SMILES is read from it. X1 = NN([C@H](Cc1ccccc1)C(=O)[*:2])[*:1]; Orn(Nα-NH2) = NCCC[C@H](NN)C(=O)O; Orn = NCCC[C@H](N)C(=O)O
value type: MIC (µM)
Form entry: value (µM) — number only.

compound: CC(C)C[C@@H]1NC(=O)[C@H](CCCN)NC(=O)[C@H](C(C)C)NC(=O)[C@@H]2CCCN2C(=O)[C@@H](Cc2ccccc2)NC(=O)[C@H](CC(C)C)NC(=O)[C@H](CCCN)NC(=O)[C@H](C(C)C)NC(=O)[C@@H]2CCCN2C(=O)[C@@H](Cc2ccccc2)NC1=O (cyclo(V[Orn]L[dF]PV[Orn]L[dF]P))
value type: MIC
numeric result: 20

compound: CC(C)C[C@@H]1NC(=O)[C@H](CCCN)N(N)C(=O)[C@H](C(C)C)NC(=O)[C@@H]2CCCN2C(=O)[C@@H](Cc2ccccc2)N(N)C(=O)[C@H](CC(C)C)NC(=O)[C@H](CCCN)NC(=O)[C@H](C(C)C)NC(=O)[C@@H]2CCCN2C(=O)[C@@H](Cc2ccccc2)NC1=O (cyclo(L[dF]PV[Orn]L[X1]PV[Orn(Nα-NH2)]))
value type: MIC
numeric result: 15

MIC reported for this compound CC(C)C[C@@H]1NC(=O)[C@H](CCCN)NC(=O)[C@H](C(C)C)NC(=O)[C@@H]2CCCN2C(=O)[C@@H](Cc2ccccc2)N(N)C(=O)[C@H](CC(C)C)NC(=O)[C@H](CCCN)N(N)C(=O)[C@H](C(C)C)NC(=O)[C@@H]2CCCN2C(=O)[C@@H](Cc2ccccc2)N(N)C1=O (cyclo(L[X1]PV[Orn]L[X1]PV[Orn(Nα-NH2)])) : 20
